Reference source: BindingDB's records for doi:10.1016/j.bmcl.2008.06.095

Test: Antagonist activity at VDR in human HL60 cells assessed as effect on 1,25-(OH)2-D3-induced cell differentiation by NBT assay
pIC50: −log10 of the molar value.
REPORTED PROPERTY: pIC50

C=C1/C(=C\C=C2/CCC[C@]3(C)[C@@H]([C@H](C)C[C@H]4C[C@](C)(O)C(=O)N4Cc4cc(OCCCC)cc(OCCCC)c4)CC[C@@H]23)C[C@@H](O)C[C@@H]1O: 6.27

1 = C=C1/C(=C\C=C2/CCC[C@]3(C)[C@@H]([C@H](C)C[C@H]4C[C@](C)(O)C(=O)N4CCc4cc(OC)cc(OC)c4)CC[C@@H]23)C[C@@H](O)C[C@@H]1O
2 = C=C1/C(=C\C=C2/CCC[C@]3(C)[C@@H]([C@H](C)C[C@H]4C[C@](C)(O)C(=O)N4Cc4cc(OCCC)cc(OCCC)c4)CC[C@@H]23)C[C@@H](O)C[C@@H]1O
Exam item: Higher pIC50 between 1 and 2 ? Kindly give the label for the entry you pick.
Marked response: 2
(2: 6.74, 1: 6.07)
